target: Carbonic anhydrase 2 (Homo sapiens, UniProt P00918); experiment: Inhibition of human recombinant carbonic anhydrase 2 assessed as activity of carbonic anhydrase 2 esterase activity against 4-nitrophenyl acetate
READOUT_KIND: IC50

Ask: Which IC50 reading was recorded for the molecule O=c1oc2cc(O)ccc2s1 ?
Result: 1.77 µM

Value source: ChEMBL document CHEMBL1155067
